tested on: 883617-216-R-J1-PDC tumor spheroids, viability; test: Anticancer human tumor 883617-216-R-J1-PDC patient-derived bladder carcinoma cell line growth inhibition [PI3K]; settings: second compound 0.316 µM; first compound 0.00949 µM; spheroids with HUVEC and MSC; active = viability on the fitted dose curve at most 10% of control; inactive = the rest;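 also: spheroids exposed to agents for 7 days before the viability read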
Write down the outcome that applies. Available outcomes: 1.0 = active, 0.0 = inactive

IN: State the result this test recorded for Cn1cnc2c(F)c(Nc3ccc(Br)cc3Cl)c(C(=O)NOCCO)cc21 + CC(Nc1ccc2c(c1)OCCn1cc(N3C(=O)OCC3C(F)F)nc1-2)C(N)=O .
OUT: 0.0

IN: Okay, and Cn1cnc2c(F)c(Nc3ccc(Br)cc3Cl)c(C(=O)NOCCO)cc21 + CC(Nc1ncnc2nc[nH]c12)c1cc2cccc(Cl)c2c(=O)n1-c1ccccc1 ?
OUT: 0.0

IN: Cn1cnc2c(F)c(Nc3ccc(Br)cc3Cl)c(C(=O)NOCCO)cc21 + COc1c(OCCCN2CCOCC2)ccc2c3n(c(=NC(=O)c4cnc(N)nc4)nc12)CCN3 , same question.
OUT: 1.0

IN: Try this molecule too: Cn1cnc2c(F)c(Nc3ccc(Br)cc3Cl)c(C(=O)NOCCO)cc21 + Cc1nc(NC(=O)N2CCCC2C(N)=O)sc1-c1ccnc(C(C)(C)C(F)(F)F)c1
OUT: 0.0
